MEASURED_TARGET: Gal(b1-6)Gal
PROCEDURE_SUMMARY: glycan array binding signal (z-score within array); higher = stronger binding
COND: glycan notation: IUPAC condensed, linker removed
Shown is part of a subset that was picked to be rich in the strongest signals.
OUTCOME_MEASURE: glycan array binding signal (z-score)
Kindly provide the number alone.

Exercise: For the binder shown here, Epa1 (Candida glabrata) (protein) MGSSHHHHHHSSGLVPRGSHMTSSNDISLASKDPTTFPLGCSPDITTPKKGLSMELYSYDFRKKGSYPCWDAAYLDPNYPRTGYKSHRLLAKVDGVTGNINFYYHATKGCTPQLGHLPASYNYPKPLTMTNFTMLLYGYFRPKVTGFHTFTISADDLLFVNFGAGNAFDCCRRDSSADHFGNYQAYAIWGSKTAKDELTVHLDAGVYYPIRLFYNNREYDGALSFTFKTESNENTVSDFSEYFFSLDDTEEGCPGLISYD , give the reported glycan array binding signal (z-score).
Key: 0.429

# credit: the supplement of paper PMC8728848
